- Assayed System: Serine/threonine-protein kinase Nek6 (Homo sapiens) (UniProt Q9HC98);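 note: values are the mean percent inhibition of NEK6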
- Sequence (Q9HC98 whole entry): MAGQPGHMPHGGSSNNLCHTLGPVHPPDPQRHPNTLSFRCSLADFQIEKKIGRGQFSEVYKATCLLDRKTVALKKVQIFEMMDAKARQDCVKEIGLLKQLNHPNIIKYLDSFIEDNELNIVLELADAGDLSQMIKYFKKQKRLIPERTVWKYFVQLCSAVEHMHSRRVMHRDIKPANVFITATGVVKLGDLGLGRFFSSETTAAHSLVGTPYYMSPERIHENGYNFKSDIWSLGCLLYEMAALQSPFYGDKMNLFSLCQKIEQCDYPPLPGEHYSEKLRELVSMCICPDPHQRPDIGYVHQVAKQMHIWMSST
- Measurement Context: at 0.1 µM
// values below are reported inhibition
Quantity Measured: inhibition (%)

* COc1cc(/C=N/Nc2ncnc3[nH]ncc23)ccc1O | 4.45
* COc1cc2ncn(-c3cc(OCc4ccccc4C(F)(F)F)c(C(=O)N(C)C)s3)c2cc1OC | 1.08
* CCn1cc(-c2ccnc3[nH]ccc23)c(-c2cccc(NC(=O)Nc3ccc(OCc4ccccc4)cc3)c2)n1 | -0.55
* CC(=O)NCc1cccc(C#Cc2cncnc2Nc2ccc(OCc3cccc(F)c3)c(Cl)c2)c1 | -1.02

----------
- Assayed System: Serine/threonine-protein kinase MARK2 (Homo sapiens) (UniProt Q7KZI7);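 note: mean percent inhibition of PAR-1Balpha kinase activity, reported from the GSK PKIS screen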
- Sequence (Q7KZI7 whole entry): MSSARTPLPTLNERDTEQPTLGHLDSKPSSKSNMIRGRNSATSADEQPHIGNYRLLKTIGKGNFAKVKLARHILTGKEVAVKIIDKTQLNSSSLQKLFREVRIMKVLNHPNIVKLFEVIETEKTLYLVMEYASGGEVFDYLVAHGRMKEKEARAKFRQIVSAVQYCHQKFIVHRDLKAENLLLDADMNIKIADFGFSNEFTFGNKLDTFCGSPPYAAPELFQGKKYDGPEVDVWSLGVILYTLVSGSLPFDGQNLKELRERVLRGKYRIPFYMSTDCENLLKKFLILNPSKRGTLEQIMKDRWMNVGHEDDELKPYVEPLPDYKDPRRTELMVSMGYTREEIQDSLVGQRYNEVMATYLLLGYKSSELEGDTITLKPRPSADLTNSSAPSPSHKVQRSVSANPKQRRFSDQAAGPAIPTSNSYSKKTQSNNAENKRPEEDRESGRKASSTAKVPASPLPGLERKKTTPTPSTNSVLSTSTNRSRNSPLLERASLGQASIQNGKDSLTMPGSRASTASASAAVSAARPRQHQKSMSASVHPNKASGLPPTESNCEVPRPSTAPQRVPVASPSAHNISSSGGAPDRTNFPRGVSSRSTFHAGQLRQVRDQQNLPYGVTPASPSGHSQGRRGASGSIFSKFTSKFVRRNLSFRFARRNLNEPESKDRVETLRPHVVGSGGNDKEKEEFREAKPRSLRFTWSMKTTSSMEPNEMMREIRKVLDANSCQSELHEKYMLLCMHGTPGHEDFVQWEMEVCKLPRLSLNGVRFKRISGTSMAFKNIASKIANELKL
- Measurement Context: at 0.1 µM
As shown below, each of these compounds has a reported inhibition value.
Quantity Measured: inhibition

* COc1ccc(-c2cc(-c3c[nH]nc3-c3ccccn3)ccn2)cc1 | 2.97%
* CCOc1ccc2c(-c3ccnc(Nc4cccc(C(F)(F)F)c4)n3)cnn2n1 | 0.02%
* c1ccc(-c2nc3n(c2-c2ccc4c(c2)OCO4)CCC3)nc1 | 2.71%
* COc1ccc(CNC(=O)c2ccc(-c3cc(-c4nnc(C)o4)ccc3C)cc2)cc1 | 1.99%
* CNC(=O)c1cccc(C#Cc2cncnc2Nc2ccc(OCc3cccc(F)c3)c(Cl)c2)c1 | -2.05%
* CN1CCC(n2cnc(-c3ccc(F)cc3)c2-c2ccnc(Nc3ccccc3)n2)CC1 | 0.89%
* COc1cccc(-c2c[nH]c3c(N/N=C/c4ccncc4)ncnc23)c1 | 0.99%
* CCCN(CCS(C)(=O)=O)Cc1ccc(-c2ccc3ncnc(Nc4ccc(OCc5cccc(F)c5)c(Cl)c4)c3c2)o1 | -0.65%
* COc1ccc(-c2oc3ncnc(N)c3c2-c2ccc(NC(=O)Nc3cc(C(F)(F)F)ccc3F)cc2)cc1 | 0.01%
* Nc1nc(-c2cccc(Cl)c2)c(-c2ccc3ncccc3n2)s1 | 1.01%
* COc1ccc2[nH]c3c4[nH]c5ccc(OC)cc5c4c4c(c3c2c1)C(=O)NC4=O | 1.57%
* CC(C)COC(=O)c1ccc2c(c1)/C(=C/Nc1ccc(S(N)(=O)=O)cc1)C(=O)N2 | 25.9%
* CCn1c(-c2nonc2N)nc2c(C#CC(C)(C)O)nc(OC[C@H](N)c3ccccc3)cc21 | 1.39%
* Fc1ccc(-c2nn3ccccc3c2-c2ccncc2)cc1 | -0.63%
* CCc1nn2ncccc2c1-c1ccnc(NC2CC2)n1 | 1.31%
* COC(=O)c1sc(-n2cnc3cc(OC)c(OC)cc32)cc1OCc1ccccc1C(F)(F)F | -1.89%
* Fc1cccc(COc2ccc(Nc3ncnc4sc(-c5ccco5)cc34)cc2Cl)c1 | 1.08%
* CN(C)CCOc1ccc(-c2nc(-c3ccncc3)c(-c3ccc4c(c3)CC/C4=N\O)[nH]2)cc1 | 1.34%
* COC(=O)Nc1nc2ccc(Oc3ccc(NC(=O)Nc4cccc(Cl)c4)cc3)cc2[nH]1 | -0.4%
* c1cc(-c2cnn3nc(N4CCOCC4)ccc23)nc(NC2CC2)n1 | 0.85%

----------
Below: a set of entries, each annotated with reported inhibition.
- Assayed System: Vascular endothelial growth factor receptor 1 (Homo sapiens);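 note: values are mean percent inhibition of FLT1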
- Measurement Context: at 0.1 µM
Quantity Measured: inhibition (%)

• N#Cc1c(NC(=O)CN2CCOCC2)sc2c1CCCC2 = 0.23
• CS(=O)(=O)CCNCc1ccc(-c2ccc3ncnc(Nc4ccc(OCc5ccccc5)c(C(F)(F)F)c4)c3c2)o1 = 1.28
• COc1cccc(-c2c[nH]c3c(N/N=C/c4ccncc4)ncnc23)c1 = 2.08
• COc1ccc(-c2nn3ncccc3c2-c2ccnc(Nc3ccc4c(c3)OCCO4)n2)cc1 = 4.09
• c1ccc(-c2nc3n(c2-c2ccc4c(c2)OCO4)CCC3)nc1 = 1.18
• COc1ccc2[nH]c3c4[nH]c5ccc(OC)cc5c4c4c(c3c2c1)C(=O)NC4=O = 2.46
• CCCN1CCC(c2ccc(Nc3nc(Nc4cc(F)ccc4C(N)=O)c4cc[nH]c4n3)c(OC)c2)CC1 = 0.21
• CC(C)COC(=O)c1ccc2c(c1)/C(=C/Nc1ccc(S(N)(=O)=O)cc1)C(=O)N2 = 4.68
• CCn1cc(-c2ccnc3[nH]ccc23)c(-c2cccc(NC(=O)Nc3ccc(OCc4ccccc4)cc3)c2)n1 = -3.05

----------
- Assayed System: Serine/threonine-protein kinase D3 (Homo sapiens);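 note: each value is the mean of inhibition readings, from a kinase profiling panel run on the GSK PKIS inhibitor collection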
- Sequence (whole entry): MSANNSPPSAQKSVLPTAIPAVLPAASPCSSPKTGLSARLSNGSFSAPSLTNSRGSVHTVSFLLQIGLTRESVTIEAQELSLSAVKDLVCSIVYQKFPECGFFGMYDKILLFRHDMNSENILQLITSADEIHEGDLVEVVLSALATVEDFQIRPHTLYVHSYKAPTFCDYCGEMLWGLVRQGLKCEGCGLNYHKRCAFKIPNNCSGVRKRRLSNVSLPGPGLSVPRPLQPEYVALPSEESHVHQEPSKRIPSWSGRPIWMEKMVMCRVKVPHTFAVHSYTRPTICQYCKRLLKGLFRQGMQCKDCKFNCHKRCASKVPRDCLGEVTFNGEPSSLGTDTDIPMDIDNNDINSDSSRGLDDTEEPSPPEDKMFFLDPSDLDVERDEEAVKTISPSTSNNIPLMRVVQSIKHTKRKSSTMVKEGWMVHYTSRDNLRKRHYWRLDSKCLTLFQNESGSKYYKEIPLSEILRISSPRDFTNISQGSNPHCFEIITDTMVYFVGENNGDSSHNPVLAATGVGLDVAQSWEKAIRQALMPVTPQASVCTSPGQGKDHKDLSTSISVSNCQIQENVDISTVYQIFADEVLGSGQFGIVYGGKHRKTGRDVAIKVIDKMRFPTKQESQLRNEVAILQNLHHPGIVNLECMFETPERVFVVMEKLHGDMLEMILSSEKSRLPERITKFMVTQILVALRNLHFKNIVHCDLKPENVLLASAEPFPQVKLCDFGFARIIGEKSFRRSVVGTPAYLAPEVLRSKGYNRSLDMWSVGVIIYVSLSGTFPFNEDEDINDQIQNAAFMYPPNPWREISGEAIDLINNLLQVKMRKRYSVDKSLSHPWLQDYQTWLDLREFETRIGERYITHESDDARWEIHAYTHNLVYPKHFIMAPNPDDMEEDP
- Measurement Context: at 0.1 µM
Label scheme, based on inhibition: bucket A: < 2%; bucket B: ≥ 2% and < 4%; bucket C: ≥ 4%

* Clc1ccc(-c2nn3ncccc3c2-c2ccnc(Nc3ccccc3)n2)cc1 | bucket A
* CCNC(=O)O[C@H]1CN[C@H](C#Cc2cc3ncnc(Nc4ccc(OCc5cccc(F)c5)c(Cl)c4)c3s2)C1 | bucket B
* CNC(=O)c1cccc(C#Cc2cncnc2Nc2ccc(OCc3cccc(F)c3)c(Cl)c2)c1 | bucket A
* CN(C)CCOc1ccc(-c2nc(-c3ccncc3)c(-c3ccc4c(c3)CC/C4=N\O)[nH]2)cc1 | bucket B
* COc1ccc(-c2nn3ncccc3c2-c2ccnc(Nc3ccc4c(c3)OCCO4)n2)cc1 | bucket B
* c1ccc(-c2nc3n(c2-c2ccc4c(c2)OCO4)CCC3)nc1 | bucket B
* FC(F)(F)c1cccc(-c2nn3ncccc3c2-c2ccnc(Nc3ccc4c(c3)OCCO4)n2)c1 | bucket C
* Fc1ccc(-c2cc(-c3c[nH]nc3-c3ccccn3)ccn2)cc1 | bucket C

----------
- Assayed System: Serine/threonine-protein kinase PAK 3 (Homo sapiens) (UniProt O75914);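 note: reported percentage is a mean inhibition value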
- Sequence (O75914 whole entry, looked up): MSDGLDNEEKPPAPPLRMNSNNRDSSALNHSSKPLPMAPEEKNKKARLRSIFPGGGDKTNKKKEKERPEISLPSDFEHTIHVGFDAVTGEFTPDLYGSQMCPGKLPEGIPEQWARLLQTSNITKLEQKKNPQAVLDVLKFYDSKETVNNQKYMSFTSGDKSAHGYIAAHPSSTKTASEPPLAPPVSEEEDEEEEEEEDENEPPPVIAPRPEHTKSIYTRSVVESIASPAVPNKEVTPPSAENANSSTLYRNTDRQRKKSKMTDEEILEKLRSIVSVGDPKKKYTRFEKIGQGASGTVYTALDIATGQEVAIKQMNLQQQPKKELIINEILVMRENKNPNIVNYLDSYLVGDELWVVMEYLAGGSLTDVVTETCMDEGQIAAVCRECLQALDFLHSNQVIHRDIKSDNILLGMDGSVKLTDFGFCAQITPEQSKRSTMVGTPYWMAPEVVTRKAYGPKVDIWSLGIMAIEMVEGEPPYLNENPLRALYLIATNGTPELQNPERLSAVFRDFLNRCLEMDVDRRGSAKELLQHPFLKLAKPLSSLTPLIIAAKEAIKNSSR
- Measurement Context: at 1 µM
Quantity Measured: inhibition (%)

- Fc1ccc(-c2nn3ncccc3c2-c2ccnc(Nc3ccc4c(c3)OCCO4)n2)cc1: 4.47
- Clc1ccc(-c2nn3ncccc3c2-c2ccnc(Nc3ccccc3)n2)cc1: 0.87
- COC(=O)c1sc(-n2cnc3cc(OC)c(OC)cc32)cc1OCc1ccccc1C(F)(F)F: 4.18
- Fc1ccc(-c2cc(-c3c[nH]nc3-c3ccccn3)ccn2)cc1: 5.11
- Cc1cccc2c1NC(=O)/C2=N\Nc1ccc(S(N)(=O)=O)cc1: 3.88
- Nc1nc(-c2cccc(Cl)c2)c(-c2ccc3ncccc3n2)s1: 6.05
- COc1ccc(-c2cc3c(N)ncnc3o2)cc1: -1.01
- NS(=O)(=O)c1ccc(N/N=C2\C(=O)Nc3ccc4ncccc4c32)cc1: 3.77
- CCn1c(-c2nonc2N)nc2ccccc21: 4.13
- NS(=O)(=O)c1ccc(Nc2ncc(-c3ccccc3)o2)cc1: 5.19
- COC(=O)Nc1nc2ccc(S(=O)(=O)c3ccc(NC(=O)Nc4cc(C(F)(F)F)ccc4F)cc3)cc2[nH]1: 3.11
- CC(=O)NCc1cccc(C#Cc2cncnc2Nc2ccc(OCc3cccc(F)c3)c(Cl)c2)c1: 0.22
- N#Cc1c(NC(=O)c2ccc(F)cc2)sc2c1CCCC2: 1.26
- Fc1ccc(-c2nn3ccccc3c2-c2ccncc2)cc1: 1.75
- CCn1c(-c2nonc2N)nc2c(C#CC(C)(C)O)nc(OC[C@H](N)c3ccccc3)cc21: 4.83
- CNC(=O)c1cccc(C#Cc2cncnc2Nc2ccc(OCc3cccc(F)c3)c(Cl)c2)c1: 0.51
- O=C(Nc1n[nH]c2cc(-c3ccc(F)cc3)ccc12)C1CC1: 3.1
- CN1CCC(n2cnc(-c3ccc(F)cc3)c2-c2ccnc(Nc3ccccc3)n2)CC1: 2.38
- O=S(=O)(CCNCc1ccc(-c2ccc3ncnc(Nc4ccc(OCc5cccc(F)c5)c(Cl)c4)c3c2)o1)c1ccccc1: 5.75
- [O-][S+]1CCN(Cc2ccc(-c3ccc4ncnc(Nc5ccc(OCc6cccc(F)c6)c(Cl)c5)c4c3)o2)CC1: 5.6
- CC1=C(C(=O)Nc2cc(Cl)c3[nH]ncc3c2)C(c2ccc(C(F)(F)F)cc2)CC(=O)N1 (stereo not given): 3.69
- CCCN1CCC(c2ccc(Nc3nc(Nc4cc(F)ccc4C(N)=O)c4cc[nH]c4n3)c(OC)c2)CC1: 5.21
- c1ccc(-c2nc3n(c2-c2ccc4c(c2)OCO4)CCC3)nc1: 2.08
- CCN(CC)S(=O)(=O)c1ccc(OC)c(Nc2ncc(-c3ccccc3)o2)c1: 1.76
- COc1cc(/C=N/Nc2ncnc3[nH]ncc23)ccc1O: 4.44
- CCCN(CCS(C)(=O)=O)Cc1ccc(-c2ccc3ncnc(Nc4ccc(OCc5cccc(F)c5)c(Cl)c4)c3c2)o1: 2.05
- COc1cccc(-c2c[nH]c3c(N/N=C/c4ccncc4)ncnc23)c1: 2.84
- COc1cccc(-n2ncc3c(N/N=C/c4ccc(F)cc4)ncnc32)c1: 4.91
- N#Cc1c(NC(=O)CN2CCOCC2)sc2c1CCCC2: 4.91
- CS(=O)(=O)CCNCc1coc(-c2ccc3ncnc(Nc4ccc(OCc5ccccc5)cc4)c3c2)c1: 3.31
- COc1ccc(-c2oc3ncnc(N)c3c2-c2ccc(NC(=O)Nc3cc(C(F)(F)F)ccc3F)cc2)cc1: 4.39
- CN(C)CCOc1ccc(-c2nc(-c3ccncc3)c(-c3ccc4c(c3)CC/C4=N\O)[nH]2)cc1: 4.82
- CCOc1ccc2c(-c3ccnc(Nc4cccc(C(F)(F)F)c4)n3)cnn2n1: 2.39
- NC(=O)c1sc(-n2cnc3ccc(C(F)(F)F)cc32)cc1OCc1ccccc1Br: 3.48
- CCc1nn2ncccc2c1-c1ccnc(NC2CC2)n1: 3.37
- CC(C)COC(=O)c1ccc2c(c1)/C(=C/Nc1ccc(S(N)(=O)=O)cc1)C(=O)N2: -0.22
- Cc1cccc(Nc2ncc(-c3ccccc3)o2)c1: 5.76
- CS(=O)(=O)CCNCc1ccc(-c2ccc3ncnc(Nc4ccc(OCc5ccccc5)c(C(F)(F)F)c4)c3c2)o1: 4.14
- CCn1c(-c2nonc2N)nc2c(C#CC(C)(C)O)ncc(OC3CCNCC3)c21: 8.39
- CC(=O)Nc1cccc(C#Cc2cncnc2Nc2ccc(OCc3cccc(F)c3)c(Cl)c2)c1: 3.79
